FYI, the data here is from paper PMC5785531.

# reported k el; entries follow
- ASSAY DETAILS: Pharmacokinetics in silkworm hemolymph after intra-hemolymph injection
- Format: in vivo, Silkworms (Bombyx mori)
- CONDITION NOTES: Hu•Yo × Tsukuba•Ne, 50 ug, injected dose 50 μg intra-hemolymph, PKSolver non-compartment analysis, read-out: Lambda_z (converted)

{"COMPOUND": "O=C(OCc1ccccc1)c1ccc([N+](=O)[O-])s1 [compound 7]", "k el": "0.000217 s⁻¹"}
{"COMPOUND": "O=C(OCc1cc(Cl)cc(Cl)c1)c1ccc([N+](=O)[O-])s1 [compound 5]", "k el": "8.33e-05 s⁻¹"}
